Listing of entries alongside the reported EC50.
biological target: NTCP (Homo sapiens, UniProt Q14973); assay: HepG2-NTCP preS1 binding competition assay (FITC-labeled myristoylated preS1 peptide); details: HepG2-NTCP cells; competition with FITC-labeled preS1 peptide
Sequence (Q14973 whole entry): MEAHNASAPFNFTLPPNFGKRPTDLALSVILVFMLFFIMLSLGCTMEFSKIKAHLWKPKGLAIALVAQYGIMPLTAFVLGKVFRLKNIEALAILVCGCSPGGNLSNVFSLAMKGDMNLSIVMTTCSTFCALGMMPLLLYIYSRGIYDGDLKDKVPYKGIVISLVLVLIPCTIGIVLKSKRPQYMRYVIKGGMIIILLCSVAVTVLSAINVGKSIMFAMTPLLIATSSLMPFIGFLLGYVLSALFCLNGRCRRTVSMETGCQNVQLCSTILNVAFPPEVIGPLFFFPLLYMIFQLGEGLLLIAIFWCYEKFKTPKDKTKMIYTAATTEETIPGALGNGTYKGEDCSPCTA
READOUT: EC50

SMILES_DATA: CN(C)C(=O)c1ccc(N2C[C@@H](C3CCCCC3)N(C)S(=O)(=O)c3cc(-c4ccc(F)c(C(=O)O)c4)c(Cl)cc32)cc1
MEASUREMENT: > 1 µM
//
SMILES_DATA: CN1[C@H](C2CCCCC2)CN(c2ccccc2)c2cc(Cl)c(-c3cc(Cl)c(N)c(C(=O)O)c3)cc2S1(=O)=O
MEASUREMENT: 0.1 to 1 µM
//
SMILES_DATA: CN1[C@H](C2CCCCC2)CN(c2ccccc2)c2cc(Cl)c(N3C[C@H]4C[C@@]4(C(=O)O)C3)cc2S1(=O)=O
MEASUREMENT: < 0.1 µM
//
SMILES_DATA: CN1[C@H](C2CCCCC2)CN(CC2COC2)c2cc(Cl)c(-c3ccc(F)c(C(=O)O)c3)cc2S1(=O)=O
MEASUREMENT: > 1 µM
//
SMILES_DATA: CC(C)C(=O)NS(=O)(=O)c1ccc(-c2cc3c(cc2Cl)N(c2ccccc2)C[C@@H](C2CCCCC2)N(C)S3(=O)=O)s1
MEASUREMENT: 0.1 to 1 µM
//
SMILES_DATA: CN1[C@H](C2CCCCC2)CN(c2ccccc2)c2cc(Cl)c(-c3ccc(S(=O)(=O)NC(=O)c4ccccc4)s3)cc2S1(=O)=O
MEASUREMENT: 0.1 to 1 µM
